# System: HEK-293T
# EXPERIMENT_SUMMARY: Multiplex assay against HEK293T
# Assay type: toxicity, cell-based
# EXPERIMENTAL_CONDITIONS: human, 24 h, 10 µM, compound concentration 10 uM, replicate 2
ATTRIBUTE_MEASURED: Population Mitochondria Different-Phenotype (%)
Mention the unit after the number when you answer.

See these solved cases before continuing.
compound=Cc1cc(C)c(S(=O)(=O)N(Cc2ccc(-c3cccc(S(C)(=O)=O)c3)cc2)Cc2ccc(C(F)(F)F)o2)c(C)c1 system_tested=HEK-293T assay_value=10%
compound="CCOc1cc2ncc(C#N)c(Nc3ccc(OCc4ccccn4)c(Cl)c3)c2cc1NC(=O)/C=C/CN(C)C [NERATINIB]" system_tested=HEK-293T assay_value=12%
compound="CN1C2CCC1CC(OC(c1ccc(F)cc1)c1ccc(F)cc1)C2.Cl (stereo not drawn)" system_tested=HEK-293T assay_value=96%
compound="O=C1NC(=O)C(c2cnc3ccccn23)=C1c1cn2c3c(cc(F)cc13)CN(C(=O)N1CCCCC1)CC2 [LY-2090314]" system_tested=HEK-293T assay_value=100%
compound="CN1CCC(=C2c3ccccc3CC(=O)c3sccc32)CC1.O=C(O)/C=C/C(=O)O [KETOTIFEN FUMARATE]" system_tested=HEK-293T assay_value=95%

For the compound C=C1/C(=C\C=C2/CCC[C@]3(C)[C@@H]([C@H](C)/C=C/[C@H](C)C(C)C)CC[C@@H]23)C[C@@H](O)C[C@@H]1O [DOXERCALCIFEROL] , report Population Mitochondria Different-Phenotype (%).
7%

For the compound S=C(NCCCc1c[nH]cn1)NCCCN(Cc1ccc(Cl)c(Cl)c1)c1ccc(Br)cn1 , report Population Mitochondria Different-Phenotype (%).
22%

For the compound CCc1cccc(CC)c1NC(=O)c1nn(C)c2c1CCc1cnc(Nc3ccc(C(=O)NC4CCN(C)CC4)cc3OC(F)(F)F)nc1-2 , report Population Mitochondria Different-Phenotype (%).
93%

* * *

# Test system: U2OS
# EXPERIMENT_SUMMARY: Multiplex assay against U2OS
# Type: toxicity, cell-based
# EXPERIMENTAL_CONDITIONS: human, 12 h, 10 µM, compound concentration 10 uM, replicate 2
ATTRIBUTE_MEASURED: Population Hoechst High Intensity Objects (%)
Numbers only here, please. The scale is %.

compound=Cc1cn(-c2cc(NC(=O)c3ccc(C)c(Nc4nccc(-c5cccnc5)n4)c3)cc(C(F)(F)F)c2)cn1 assay_value=7

For the compound CN1CCC(=C2c3ccccc3CC(=O)c3sccc32)CC1.O=C(O)/C=C/C(=O)O [KETOTIFEN FUMARATE] , report Population Hoechst High Intensity Objects (%).
1

For the compound O=C(Nc1ccc(Cl)cc1)Nc1cccc(-c2cccc(N3CCCC3)n2)c1 , report Population Hoechst High Intensity Objects (%).
7

For the compound CNC(=O)c1ccc(Nc2nc(OC3CCCC3)c3c(-c4ccc5nc(C)oc5c4)c[nH]c3n2)c(OC)c1 , report Population Hoechst High Intensity Objects (%).
22

For the compound O=C1N/C(=N/c2ccccc2F)S/C1=C\c1ccc(C(=O)O)cc1 , report Population Hoechst High Intensity Objects (%).
8

For the compound CCN1CCN(c2ccc(Nc3cc(N(C)C(=O)Nc4c(Cl)c(OC)cc(OC)c4Cl)ncn3)cc2)CC1 , report Population Hoechst High Intensity Objects (%).
13

For the compound Cc1cc(C)c(S(=O)(=O)N(Cc2ccc(-c3cccc(S(C)(=O)=O)c3)cc2)Cc2ccc(C(F)(F)F)o2)c(C)c1 , report Population Hoechst High Intensity Objects (%).
22

* * *

# Test system: HEK-293T
# EXPERIMENT_SUMMARY: Multiplex assay against HEK293T
# Assay type: toxicity, cell-based
# EXPERIMENTAL_CONDITIONS: human, 24 h, 10 µM, compound concentration 10 uM, replicate 2
ATTRIBUTE_MEASURED: Population Pyknosed Nuclei (%)
Numbers only here, please. The scale is %.

See these solved cases before continuing.
compound=COc1ccc(-c2ccc3c(N4CCOCC4)nc(N4C[C@@H](C)O[C@@H](C)C4)nc3n2)cc1CO system_tested=HEK-293T attribute_measured="Population Pyknosed Nuclei (%)" output_unit=% assay_value=2
compound=Cc1cn(-c2cc(NC(=O)c3ccc(C)c(Nc4nccc(-c5cccnc5)n4)c3)cc(C(F)(F)F)c2)cn1 system_tested=HEK-293T attribute_measured="Population Pyknosed Nuclei (%)" output_unit=% assay_value=36
compound=COc1cccc2cc(-c3nc([C@H]4CC[C@H](C(=O)O)CC4)n4ncnc(N)c34)[nH]c12 system_tested=HEK-293T attribute_measured="Population Pyknosed Nuclei (%)" output_unit=% assay_value=2
compound=CCc1cccc(CC)c1NC(=O)c1nn(C)c2c1CCc1cnc(Nc3ccc(C(=O)NC4CCN(C)CC4)cc3OC(F)(F)F)nc1-2 system_tested=HEK-293T attribute_measured="Population Pyknosed Nuclei (%)" output_unit=% assay_value=61

Please look at the following compound next.
For the compound O=C(Nc1ccc(-n2nc(-c3cccnc3)cc2C(F)(F)F)cn1)c1ccc(-c2ccccc2)c(F)c1 , report Population Pyknosed Nuclei (%).
29

* * *

# System: U2OS
# EXPERIMENT_SUMMARY: Multiplex assay against U2OS
# Assay type: toxicity, cell-based
# EXPERIMENTAL_CONDITIONS: human, 24 h, 1 µM, compound concentration 1 uM, replicate 2
Reported values of Population Pyknosed Nuclei (%) for individual entries
Numbers only here, please. The scale is %.

See these solved cases before continuing.
compound=O=C(Nc1cccnn1)N1CCC(=Cc2cccc(Oc3ccc(C(F)(F)F)cn3)c2)CC1 output_unit=% assay_value=10
compound=CN1CCN(C(=O)C(C)(C)c2ccc(C(=O)Nc3cn4cc(-c5cc(C(C)(C)C)cc(C(C)(C)C)c5)ccc4n3)cc2)CC1 output_unit=% assay_value=4
compound=Cc1ccc(C(=O)Nc2cccc(C(F)(F)F)c2)cc1Nc1nc(-c2cccnc2)nc2c1cnn2C output_unit=% assay_value=14
compound=COc1ccc(S(=O)(=O)N(CCO)c2ccccc2CN(C)C/C=C/c2ccc(Cl)cc2)cc1.O=P(O)(O)O output_unit=% assay_value=24
compound=CN[C@@H]1C[C@H]2O[C@@](C)([C@@H]1OC)n1c3ccccc3c3c4c(c5c6ccccc6n2c5c31)C(=O)NC4 output_unit=% assay_value=31
compound=CN([C@@H](Cc1ccc(OS(=O)(=O)c2cccc3cnccc23)cc1)C(=O)N1CCN(c2ccccc2)CC1)S(=O)(=O)c1cccc2cnccc12 output_unit=% assay_value=15
compound=Cc1cn(-c2cc(NC(=O)c3ccc(C)c(Nc4nccc(-c5cccnc5)n4)c3)cc(C(F)(F)F)c2)cn1 output_unit=% assay_value=5

Jot down Population Pyknosed Nuclei (%) (U2OS) of CN1C2CCC1CC(OC(c1ccc(F)cc1)c1ccc(F)cc1)C2.Cl (stereo not drawn) .
6

* * *

# System: Fibroblast
# EXPERIMENT_SUMMARY: Multiplex assay against human fibroblast
# Assay type: toxicity, cell-based
# EXPERIMENTAL_CONDITIONS: 48 h, 1 µM, compound concentration 1 uM, replicate 2
ATTRIBUTE_MEASURED: Population Mitotic Cells (%)
Numbers only here, please. The scale is %.

For the compound CNc1cc(Oc2cc(C(=O)Nc3cc(N4CCN(C)CC4)cc(C(F)(F)F)c3)ccc2C)ncn1 , report Population Mitotic Cells (%).
40

For the compound O=C(Nc1ccc(-n2nc(-c3cccnc3)cc2C(F)(F)F)cn1)c1ccc(-c2ccccc2)c(F)c1 , report Population Mitotic Cells (%).
0

For the compound Cc1cn(-c2cc(NC(=O)c3ccc(C)c(Nc4nccc(-c5cccnc5)n4)c3)cc(C(F)(F)F)c2)cn1 , report Population Mitotic Cells (%).
0

For the compound Cl.O=c1c2cccn2c2ccccc2n1CCCN1CCC(c2ccc(Cl)cc2)CC1 , report Population Mitotic Cells (%).
33

For the compound CN1C2CCC1CC(OC(c1ccc(F)cc1)c1ccc(F)cc1)C2.Cl (stereo unspecified) , report Population Mitotic Cells (%).
100

For the compound CCc1cccc(CC)c1NC(=O)c1nn(C)c2c1CCc1cnc(Nc3ccc(C(=O)NC4CCN(C)CC4)cc3OC(F)(F)F)nc1-2 , report Population Mitotic Cells (%).
80

For the compound O=C(Cc1ccc(-c2ccc(OCCN3CCOCC3)cc2)cn1)NCc1ccccc1 , report Population Mitotic Cells (%).
28

For the compound CCOc1cc(C(=O)N2CCC(N3CCN(C)CC3)CC2)ccc1Nc1ncc2c(n1)N(C1CCCC1)c1ccccc1C(=O)N2C , report Population Mitotic Cells (%).
0

For the compound CCCn1c(=O)c2[nH]c(-c3cnn(Cc4cccc(C(F)(F)F)c4)c3)nc2n(CC)c1=O , report Population Mitotic Cells (%).
0

For the compound COc1cc(N2CCN(C)CC2)ccc1Nc1ncc2c(n1)N(C)c1ccccc1C(=O)N2C , report Population Mitotic Cells (%).
0

For the compound C=C1/C(=C\C=C2/CCC[C@]3(C)[C@@H]([C@H](C)/C=C/[C@H](C)C(C)C)CC[C@@H]23)C[C@@H](O)C[C@@H]1O , report Population Mitotic Cells (%).
0
